Test: Clearance in human microsomes assessed per mg protein at 1 uM preincubated for 10 mins followed by NADPH addition and measured after 1 to 45 mins by LC-MS/MS analysis
Type: ADME, Microsome
Conditions: time 55 min
Measured property: microsomal CLint at 1 µM (µL/min/mg)

- COc1nc(NS(=O)(=O)c2c[nH]c(-c3ccccc3)c2)nc(OC)c1OCC(F)F: 10
- COc1nc(NS(=O)(=O)c2c[nH]c(-c3ncccc3F)c2)nc(OC)c1OCCF: 10
- COc1nc(NS(=O)(=O)c2c[nH]c(-c3nccs3)c2)nc(OC)c1OC(F)F: 10

---

Assay: Clearance in mouse microsomes assessed per mg protein at 1 uM preincubated for 10 mins followed by NADPH addition and measured after 1 to 45 mins by LC-MS/MS analysis
Format: ADME, Microsome
Details: time 55 min
Measured property: microsomal CLint at 1 µM (µL/min/mg)

• COc1nc(NS(=O)(=O)c2c[nH]c(-c3nccs3)c2)nc(OC)c1OC(F)F = 10

[I] COc1nc(NS(=O)(=O)c2c[nH]c(-c3ccccc3)c2)nc(OC)c1OCC(F)F
[II] COc1nc(NS(=O)(=O)c2c[nH]c(-c3ncccc3F)c2)nc(OC)c1OCCF
Q. Pick one: I or II . Which has the bigger microsomal CLint at 1 µM number? Please indicate the selected item by its label.
A. I

---

Test: Clearance in rat microsomes assessed per mg protein at 1 uM preincubated for 10 mins followed by NADPH addition and measured after 1 to 45 mins by LC-MS/MS analysis
Assay type: ADME, Microsome
Settings: time 55 min
Measured property: microsomal CLint at 1 µM (µL/min/mg)

[A] COc1nc(NS(=O)(=O)c2c[nH]c(-c3ccccc3)c2)nc(OC)c1OCC(F)F
[B] COc1nc(NS(=O)(=O)c2c[nH]c(-c3ncccc3F)c2)nc(OC)c1OCCF
[C] COc1nc(NS(=O)(=O)c2c[nH]c(-c3nccs3)c2)nc(OC)c1OC(F)F
Q. Ascending by microsomal CLint at 1 µM, please: list the compounds accordingly. API: response body holds the labels in the requested order.
A. B, C, A
(B: 32 µL/min/mg, C: 50 µL/min/mg, A: 81 µL/min/mg)
